Measured log10 CC50 at 48 h values are reported for all entries that follow.
Experiment: Cytotoxicity against bovine Bon-Fib cells after 48 hrs by MTT assay
Type: cell-based, Bos taurus
Conditions: cattle
Note: values are log10 of CC50 at 48 h expressed in µg/mL.

| MOLECULE | log10 CC50 at 48 h |
| --- | --- |
| CC[C@]1(O)C[C@H]2CN(CCc3c([nH]c4ccccc34)[C@@](C(=O)OC)(c3cc4c(cc3OC)N(C=O)[C@H]3[C@@](O)(C(=O)OC)[C@H](OC(C)=O)[C@]5(CC)C=CCN6CC[C@]43[C@@H]65)C2)C1 | -0.21 |
| CC(=O)OC[C@@H]1[C@H]2CC[C@@H]3[C@@]4(C)CCCC(C)(C)[C@@H]4CC[C@@]13COC2=O | 1.20 |
| CC(=O)O[C@H]1OC(=O)[C@@H]2CC[C@@H]3[C@@]4(C)CCCC(C)(C)[C@@H]4CC[C@@]3(C=O)[C@H]12 | 1.26 |

stdin: I have this molecule here, CC1(C)CCC[C@]2(C)[C@H]3CC[C@H]4C(=O)OC[C@H]4[C@]3(C=O)CC[C@@H]12 , and I need its recorded log10 CC50 at 48 h.
stdout: 1.28

stdin: # iterate: CC1(C)CCC[C@]2(C)[C@H]3CC[C@H]4C(=O)OC5O[C@@H](O)[C@]3(CC[C@@H]12)[C@H]54 (some centres not stated)
stdout: 1.28

stdin: Then this molecule: CO[C@H]1CC[C@]2(C)[C@H]3CCc4cocc4[C@]3(C)CC[C@H]2[C@@H]1C
stdout: 1.25

Origin of the recorded values: ChEMBL document CHEMBL1159320
